Cited source for all entries: paper PMC4118376

- testedTarget: staphylococcal enterotoxin B (Staphylococcus aureus (strain not …, UniProt P01552))
- Sequence (P01552 28-266): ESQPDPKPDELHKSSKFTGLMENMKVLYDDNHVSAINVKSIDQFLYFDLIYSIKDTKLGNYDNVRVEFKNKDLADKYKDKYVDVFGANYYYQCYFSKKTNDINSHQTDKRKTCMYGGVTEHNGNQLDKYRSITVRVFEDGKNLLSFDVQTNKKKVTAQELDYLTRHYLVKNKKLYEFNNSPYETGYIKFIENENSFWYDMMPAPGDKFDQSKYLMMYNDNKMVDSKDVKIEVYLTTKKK
- experimentalDetails: SPR
- experimentalParameters: both partners purified
Here the recorded Kd is given for each entry.
Write the number in nM without appending the unit.

[[record]]
binder = "sdAb E2 (VHH, source: E. coli Rosetta (DE3), periplasm, purified (IMAC, size exclusion chromatography)) VHH: EVQLQASGGGLVQAGGSLRLTCAASGRTFGSYAMGWFRQAPGKEREFVAAISWSGGDTYADSVKGRFTISRDNAKNTVYLQMNSLAPEDTAVYSCAAVGARYYISKDAKDYGYWGQGTQVTVSS"
testresult = 0.273


Entry sdAb E9 (VHH, source: E. coli Rosetta (DE3), periplasm, purified (IMAC, size exclusion chromatography)) VHH: EVQLQASGGGLVQAGGSLRLSCAASGRDFSDYAMAWFRQAPGKEREFVGTISWYTNTNYADSVKGRFSISRDNAKNTVYLQMSSLKPEDTAVYYCAAAPARYYNPYKRESEYGYWGQGTQVTVSS , Kd reported as 0.533

Entry sdAb H9 (VHH, source: E. coli Rosetta (DE3), periplasm, purified (IMAC, size exclusion chromatography)) VHH: EVQLQASGGGLVQAGGSLRLTCAVSGPTFGSYALGWFRQAPGKEREFVAAVSWSGGDTYADSVKGRFIISRDNAKNTVYLQMNNLEPEDTAVYSCARMQDRYYISKDAKDYGYWGQETQVTVSS , Kd reported as 0.09
